Where do the numbers come from? From paper PMC7156458.

Listing of recorded Luminescence Raw2 by entry.
# Tested on: DL1 cells
# TEST DESCRIPTION: cytotoxicity in Drosophila DL1 cells
# Assay type: cell-based
# CONDITION LABEL: DL1 cells, 1 µM, replicate 2

Solved entries (count: 5):
| COMPOUND | VALUE TYPE | OBSERVED RESULT |
| --- | --- | --- |
| C=C1CCC2C(C)(CCC=C(C)C)C(O)CCC2(C)C1Cc1c(O)c(C)c(C)oc1=O (stereo not shown) | Luminescence Raw2 | 2704113 |
| C=C1CCC2C(C)(CCC=C(C)C)C(O)CCC2(C)C1Cc1c(OC)oc(C)c(C)c1=O (stereo not shown) [Compound 11] | Luminescence Raw2 | 482949 |
| C=C1CCC2C(C)(CCC=C(C)C)C(O)CCC2(C)C1Cc1c(OC)oc(C)c(C(=O)OC)c1=O (stereo not shown) | Luminescence Raw2 | 165136 |
| C=C1CC[C@H]2[C@]3(C)C[C@H](C=C(C)C)O[C@H]3CC[C@]2(C)[C@@H]1Cc1c(OC)oc(CO)c(C)c1=O | Luminescence Raw2 | 146747 |
| C=C1CCC2C(C)(CC(=O)C=C(C)C)C(O)CCC2(C)C1Cc1c(OC)oc(CO)c(C)c1=O (stereo not shown) | Luminescence Raw2 | 1792907 |

*Q* Please report the measured Luminescence Raw2 for C=C1CCC2C(C)(CC(=O)C=C(C)C)C(O)CCC2(C)C1Cc1c(OC)oc(C)c(C)c1=O (stereo not shown)
*A* 2736769

*Q* Please report the measured Luminescence Raw2 for C=C1CCC2C(C)(CCC=C(C)C)C(O)CCC2(C)C1Cc1c(OC)oc(C)c(C)c1=O (stereo not shown) [Compound 15, viridoxin A hydrolysate]
*A* 3157521
